// data source = ChEMBL document CHEMBL4513216

- System: Plasmodium berghei
- protocol description: Screen against P. berghei liver stage (PbLuc), transformed with Luciferase, at 2uM
- Type: functional, HepG2
- measurement setup: tested at 2 uM
About 2,700 (4%) of roughly 68,000 compounds showed an effect of 50% or more. Shown is part of a subset that was picked to be rich in strong results.
measurement name: INHIBITION (%)
Expressed in %, but write only the number.

compound	unit	INHIBITION
CC(C)N(CCNC(=O)c1ccc(S(=O)(=O)NC2CC2)cc1)C(C)C	%	58.12

Task: Return INHIBITION measured with Plasmodium berghei given this compound: CC(C)c1nn(C)c(N(C)C)c1CNCCC(=O)NC1CCCCC1
Output: 39.72

Task: Item Cc1ccc(NC(=O)N(C)C)c(C(=O)OCC(=O)NC(C)C(C)C)c1 (centres undefined) with Plasmodium berghei - INHIBITION?
Output: 20.34

Task: # returns recorded INHIBITION (system: Plasmodium berghei) for Cc1ncc(-c2ccnc(NCCO)n2)c(C2CCCCC2)n1
Output: -38.58

Task: Identify the measured INHIBITION of Cc1noc(C)c1CN1CCC2(CC1)NC(=O)CC2c1ccccc1 (centres undefined) for Plasmodium berghei.
Output: 20.01
